Entries annotated with measured pIC50
System: Vero
assay details: Cytotoxicity against african green monkey Vero cells after 48 hrs by [3H]hypoxanthine incorporation assay
Assay type: cell-based
condition: Chlorocebus sabaeus
pIC50: −log10 of the molar value.
observable: pIC50

molecule: Cn1c(=O)c2ccccc2c2nc3ccccc3cc21
system under test: Vero
observable: pIC50
assay value: 4.38

molecule: COc1cccc2c1C(=O)c1c(O)c3c(c(O)c1C2=O)C[C@@](O)(C(=O)CO)C[C@@H]3O[C@H]1C[C@H](N)[C@H](O)[C@H](C)O1 [DOXORUBICIN]
system under test: Vero
observable: pIC50
assay value: 5.13

molecule: Cn1c(=O)c2ccccc2c2ccc3ncccc3c21
system under test: Vero
observable: pIC50
assay value: 5.46

molecule: Cn1c(=O)c2ccccc2c2cc3ncccc3cc21
system under test: Vero
observable: pIC50
assay value: 5.55

molecule: Cn1c(=O)c2ccccc2c2c3ccccc3ncc21
system under test: Vero
observable: pIC50
assay value: 4.65

molecule: Cn1c(=O)c2ccccc2c2ccc3cnccc3c21
system under test: Vero
observable: pIC50
assay value: 5.64

molecule: Cn1c(=O)c2ccccc2c2ccc3cccnc3c21
system under test: Vero
observable: pIC50
assay value: 5.47

molecule: Cn1c(=O)c2ccccc2c2c3cccnc3ccc21
system under test: Vero
observable: pIC50
assay value: 5.76
